Cited source for all entries: the supplement of paper PMC11628255

System: firefly luciferase (FLuc)
measurement_description: residual bioluminescent signal relative to negative (DMSO) control; higher = less interference (more residual luciferase signal)
details: metal salt concentration 5 mM; screening conditions (0.5 mM Tris, 50 mM glycine, 0.5 mM EDTA, 5 mM MgSO4, 10 uM ATP, pH 7.6)
In this section, each of the compounds is paired with its reported residual bioluminescent signal.
Lab book: enter the figure in %, no units written.

Examples with their reported residual bioluminescent signal follow.
# compound, display_unit, readout_number
rows = [
    ("O=S(=O)([O-])[O-].[Mn+2] [manganese(II) sulfate]", "%", 57.4),
    ("O.O.O.O.O.O.O.O=S(=O)([O-])[O-].[Mg+2] [magnesium sulfate]", "%", 47.7),
    ("[Cl-].[Na+] [sodium chloride]", "%", 79.7),
    ("CC#N.CC#N.CC#N.CC#N.F[B-](F)(F)F.[Cu+] [tetrakis(acetonitrile)copper(I) tetrafluoroborate]", "%", 0.422),
]

Kindly consider the entry below.
Endpoint output: residual bioluminescent signal of [Cl][Fe]([Cl])[Cl] [iron(III) chloride] . Value?
0.29
